# credit: patent US10730870B2

target: UniProtKB P40337; assay: VHL fluorescence polarization (FP) competition assay; type: binding; settings: 10% in DMSO
Please respond with reported pIC50 for every item in the list.
Numbers only, as −log10 of the molar value.

compound="Cc1ncsc1-c1ccc(CNC(=O)[C@@H]2C[C@@H](O)CN2C(=O)[C@@H](NC(=O)CC(C)C)C(C)(C)C)cc1 [Example 18]" subject_of_test="UniProtKB P40337" quantitative_result=5.57
compound="Cc1ncsc1-c1ccc(CNC(=O)[C@@H]2C[C@@H](O)CN2C(=O)[C@@H](NC(=O)c2cccnc2)C(C)(C)C)cc1 [Example 84]" subject_of_test="UniProtKB P40337" quantitative_result=5.84
compound="Cc1ncsc1-c1ccc(CNC(=O)[C@@H]2C[C@@H](O)CN2C(=O)[C@@H](NCCC(C)C)C2CCCC2)cc1 [Example 32]" subject_of_test="UniProtKB P40337" quantitative_result=5.47
compound="COc1ccc2c(c1)CN([C@H](C(=O)N1C[C@H](O)C[C@H]1C(=O)NCc1ccc(-c3scnc3C)cc1)C(C)C)C2=O [Example 72]" subject_of_test="UniProtKB P40337" quantitative_result=5.99
compound="Cc1ncsc1-c1ccc(CNC(=O)[C@@H]2C[C@@H](O)CN2C(=O)C2(N3Cc4ccccc4C3=O)CCC2)cc1 [Example 55]" subject_of_test="UniProtKB P40337" quantitative_result=3.34
compound="Cc1ncsc1-c1ccc(CNC(=O)[C@@H]2C[C@@H](O)CN2C(=O)[C@H](C(C)C)N2Cc3cccc(Cl)c3C2=O)cc1 [Example 7]" subject_of_test="UniProtKB P40337" quantitative_result=5.07
compound="Cc1ncsc1-c1ccc([C@H](C)NC(=O)[C@@H]2C[C@@H](O)CN2C(=O)[C@H](C(C)C)N2Cc3ccccc3C2=O)cc1 [Example 39]" subject_of_test="UniProtKB P40337" quantitative_result=5.79
compound="COCC#Cc1ccc2c(c1)CN([C@H](C(=O)N1C[C@H](O)C[C@H]1C(=O)NCc1ccc(-c3scnc3C)cc1)C(C)C)C2=O [Example 53]" subject_of_test="UniProtKB P40337" quantitative_result=5.99

For each listed entry, give its pIC50.
1. CC(=O)N[C@H](C(=O)N1C[C@H](O)C[C@H]1C(=O)NCc1ccc(-c2scnc2C)cc1)C(C)C [Example 69]
2. Cc1cnccc1-c1ccc(CNC(=O)[C@@H]2C[C@@H](O)CN2C(=O)[C@H](C(C)C)N2Cc3ccccc3C2=O)cc1 [Example 80]
3. CSC[C@@H](C(=O)N1C[C@H](O)C[C@H]1C(=O)NCc1ccc(-c2scnc2C)cc1)N1Cc2ccccc2C1=O [Example 37]
4. Cc1ncsc1-c1ccc(CNC(=O)[C@@H]2C[C@@H](O)CN2C(=O)[C@H](C(C)C)N2Cc3cccc(Br)c3C2=O)cc1 [Example 42]
5. COc1cccc2c1C(=O)N([C@H](C(=O)N1C[C@H](O)C[C@H]1C(=O)NCc1ccc(-c3scnc3C)cc1)C(C)C)C2 [Example 15]

5.37
4.41
5.13
4.80
4.09

###

Please respond with reported IC50 for every item in the list.
biological target: VHL (Homo sapiens (Human)); experiment: VHL fluorescence polarization (FP) competition assay; type: binding; settings: 10% in DMSO
Remember to follow the number with its unit.

smiles_entry=CC(C)[C@@H](C(=O)N1C[C@H](O)C[C@H]1C(=O)NCc1ccc(-c2scnc2Br)cc1)N1Cc2ccccc2C1=O measured_parameter=IC50 result="2.28 µM"

For each listed entry, give its IC50.
1. Cc1ncsc1-c1ccc(CNC(=O)[C@@H]2C[C@@H](O)CN2C(=O)[C@H](C(C)C)N2Cc3ccc(Cl)cc3C2=O)cc1
2. Cc1ncsc1-c1ccc(CNC(=O)[C@@H]2C[C@@H](O)CN2C(=O)[C@@H](NC(=O)CCC(C)C)c2cccs2)cc1
3. Cc1ncsc1-c1ccc(CNC(=O)[C@@H]2C[C@@H](O)CN2C(=O)[C@H](C(C)C)N2Cc3c(Cl)cccc3C2=O)cc1
4. Cc1ncsc1-c1ccc(CNC(=O)[C@@H]2C[C@@H](O)CN2C(=O)c2ccccc2)cc1
5. COc1cccc(CCC(=O)N[C@H](C(=O)N2C[C@H](O)C[C@H]2C(=O)NCc2ccc(-c3scnc3C)cc2)C(C)(C)C)c1

0.264 µM
3.73 µM
0.668 µM
30.5 µM
0.349 µM

Short answer please: IC50, VHL (Homo sapiens (Human)), entry `Cc1ncsc1-c1ccc(CNC(=O)[C@@H]2C[C@@H](O)CN2C(=O)[C@@H](NC(=O)c2ccc(C#N)cc2)C(C)(C)C)cc1`
1.2 µM

###

target: His-tagged VHL protein (Homo sapiens (Human))
measured-parameter: pKd
Answers are plain numbers, as −log10 of the molar value.

For `Cc1cc([C@H](C(=O)N2C[C@H](O)C[C@H]2C(=O)N[C@@H](C)c2ccc(-c3scnc3C)cc2)C(C)C)on1` , what is its reported pKd?
6.48

###

target: VHL (Homo sapiens (Human)); experiment: VHL fluorescence polarization (FP) competition assay; assay type: binding; settings: 10% in DMSO
pIC50: −log10 of the molar value.
Use 1 when the recorded pIC50 is no lower than 6; use 0 when it is lower.

smiles_entry=Cc1ncsc1-c1ccc(CNC(=O)[C@@H]2C[C@@H](O)CN2C(=O)[C@@H](NC(=O)C(C)(C)C)C(C)(C)C)cc1 subject_of_test="VHL (Homo sapiens (Human))" assigned_class=0
smiles_entry=CC(C)[C@@H](C(=O)N1C[C@H](O)C[C@H]1C(=O)NCc1ccc(Br)cc1)N1Cc2ccccc2C1=O subject_of_test="VHL (Homo sapiens (Human))" assigned_class=0
smiles_entry=Cc1ncsc1-c1ccc(CNC(=O)[C@H]2C[C@H](O)CN2C(=O)[C@@H](CSSC[C@H](NC(=O)CCC(C)C)C(=O)N2C[C@H](O)C[C@H]2C(=O)NCc2ccc(-c3scnc3C)cc2)NC(=O)CCC(C)C)cc1 subject_of_test="VHL (Homo sapiens (Human))" assigned_class=1

# bool: pIC50 of `Cc1ncsc1-c1ccc(CNC(=O)[C@@H]2C[C@@H](O)CN2C(=O)[C@@H](NC(=O)CCc2ccccc2)C(C)(C)C)cc1` >= 6
1

# bool: pIC50 of `Cc1ncsc1-c1ccc(CNC(=O)[C@@H]2C[C@@H](O)CN2C(=O)[C@H](C(C)C)N2Cc3cc(F)ccc3C2=O)cc1` >= 6
0

###

target: VHL (Homo sapiens (Human)); assay: VHL fluorescence polarization (FP) competition assay; format: binding; details: 1% in DMSO
measured-parameter: IC50 (µM)
Answers are plain numbers, in µM.

molecule="CC(C)[C@@H](C(=O)N1C[C@H](O)C[C@H]1C(=O)N[C@@H](C)c1ccc(Br)cc1)N1Cc2ccccc2C1=O [Example 24]" measured_parameter=IC50 units_symbol=µM quantitative_result=8.65
molecule="Cc1ncsc1-c1ccc(CNC(=O)[C@@H]2C[C@@H](O)CN2C(=O)[C@@H](NC(=O)CCC(C)C)[C@H](C)O)cc1 [Example 51]" measured_parameter=IC50 units_symbol=µM quantitative_result=56.6
molecule="CC(C)[C@@H](C(=O)N1C[C@H](O)C[C@H]1C(=O)NCc1ccc(-c2cncs2)cc1)N1Cc2ccccc2C1=O [Example 97]" measured_parameter=IC50 units_symbol=µM quantitative_result=1.45
molecule="Cc1ncsc1-c1ccc(CNC(=O)[C@@H]2C[C@@H](O)CN2C(=O)[C@@H](NC(=O)c2ccccn2)C(C)(C)C)cc1 [Example 78]" measured_parameter=IC50 units_symbol=µM quantitative_result=1.03
molecule="COc1ccc(C(=O)N2C[C@H](O)C[C@H]2C(=O)NCc2ccc(-c3scnc3C)cc2)c(C)c1 [Example 88]" measured_parameter=IC50 units_symbol=µM quantitative_result=20.4
molecule="Cc1ncsc1-c1ccc(CNC(=O)[C@@H]2C[C@@](C)(O)CN2C(=O)[C@H](C(C)C)N2Cc3ccccc3C2=O)cc1 [Example 142]" measured_parameter=IC50 units_symbol=µM quantitative_result=134
molecule="CCc1ncsc1-c1ccc(CNC(=O)[C@@H]2C[C@@H](O)CN2C(=O)[C@H](C(C)C)N2Cc3ccccc3C2=O)cc1 [Example 5]" measured_parameter=IC50 units_symbol=µM quantitative_result=0.799
molecule="Cc1ncsc1-c1ccc(CNC(=O)[C@@H]2C[C@@H](O)CN2C(=O)[C@@H](NC(=O)CN)C(C)(C)C)cc1 [Example 125]" measured_parameter=IC50 units_symbol=µM quantitative_result=1.64

For each listed entry, give its IC50.
1. Cc1ncsc1-c1ccc(CNC(=O)[C@@H]2C[C@@H](O)CN2C(=O)[C@@H](NC(=O)c2cccnc2)C(C)(C)C)cc1 [Example 84]
2. Cc1ncsc1-c1ccc(CNC(=O)[C@@H]2C[C@@H](O)CN2C(=O)[C@H](C(C)C)N2Cc3cccc(Br)c3C2=O)cc1 [Example 42]
3. Cc1ncsc1-c1ccc(CNC(=O)[C@@H]2C[C@@H](O)CN2C(=O)[C@@H](NC(=O)C(C)(C)C)C(C)(C)C)cc1 [Example 14]
4. Cc1ncoc1-c1ccc(CNC(=O)[C@@H]2C[C@@H](O)CN2C(=O)[C@H](C(C)C)N2Cc3ccccc3C2=O)cc1 [Example 133]
5. Cc1ncsc1-c1ccc(CNC(=O)[C@@H]2C[C@@H](O)CN2C(=O)[C@@H](NC(=O)[C@H](C)N)C(C)(C)C)cc1 [Example 123]
6. Cc1ncsc1-c1ccc(CNC(=O)[C@@H]2C[C@@H](O)CN2C(=O)[C@H](CS)N2Cc3ccccc3C2=O)cc1 [Example 48]

1. 1.24
2. 4.95
3. 4.63
4. 1.64
5. 4.23
6. 3.77

For each listed entry, give its IC50.
1. Cc1ncsc1-c1ccc(CNC(=O)[C@@H]2C[C@@H](O)CN2C(=O)[C@@H](NC(=O)CCC(C)C)c2cccs2)cc1 [Example 52]
2. Cc1ncsc1-c1ccc(CNC(=N)[C@@H]2C[C@@H](O)CN2C(=O)[C@H](C(C)C)N2Cc3ccccc3C2=O)cc1 [Example 126]
3. Cc1ncsc1-c1ccc(CNC(=O)[C@@H]2C[C@@H](O)CN2C(=O)[C@@H](NC(=O)c2cccc(C#N)c2)C(C)(C)C)cc1 [Example 71]
4. Cc1ncsc1-c1ccc(CNC(=O)[C@@H]2C[C@@H](O)CN2C(=O)[C@H](C(C)C)N2Cc3c(Br)cccc3C2=O)cc1 [Example 26]
5. COc1cccc2c1C(=O)N([C@H](C(=O)N1C[C@H](O)C[C@H]1C(=O)NCc1ccc(-c3scnc3C)cc1)C(C)C)C2 [Example 15]

2.48
79.5
1.62
0.941
24.5

For each listed entry, give its IC50.
1. CC(C)[C@@H](C(=O)N1C[C@H](O)C[C@H]1C(=O)NCc1ccc(-c2ccn[nH]2)cc1)N1Cc2ccccc2C1=O [Example 41]
2. Cc1ncsc1-c1ccc(CNC(=O)[C@@H]2C[C@@H](O)CN2C(=O)[C@H](C(C)C)N2Cc3ccc(C#N)cc3C2=O)cc1 [Example 17]
3. Cc1ncsc1-c1ccc(CNC(=O)[C@@H]2C[C@@H](O)CN2C(=O)[C@H](c2cccs2)N2Cc3ccccc3C2=O)cc1 [Example 58]

1: 1.19; 2: 0.317; 3: 32.6

For each listed entry, give its IC50.
1. Cc1ncsc1-c1ccc(CNC(=O)[C@@H]2C[C@@H](O)CN2C(=O)C2(N3Cc4ccccc4C3=O)CCCCC2)cc1 [Example 54]
2. Cc1ncsc1-c1ccc(CNC(=O)[C@@H]2C[C@@H](O)CN2C(=O)C2(N3Cc4ccccc4C3=O)CCC2)cc1 [Example 55]

0.834
115
